TARGET ENTITY: NAMPT (Homo sapiens (Human), UniProt P43490)
Sequence (P43490 whole entry): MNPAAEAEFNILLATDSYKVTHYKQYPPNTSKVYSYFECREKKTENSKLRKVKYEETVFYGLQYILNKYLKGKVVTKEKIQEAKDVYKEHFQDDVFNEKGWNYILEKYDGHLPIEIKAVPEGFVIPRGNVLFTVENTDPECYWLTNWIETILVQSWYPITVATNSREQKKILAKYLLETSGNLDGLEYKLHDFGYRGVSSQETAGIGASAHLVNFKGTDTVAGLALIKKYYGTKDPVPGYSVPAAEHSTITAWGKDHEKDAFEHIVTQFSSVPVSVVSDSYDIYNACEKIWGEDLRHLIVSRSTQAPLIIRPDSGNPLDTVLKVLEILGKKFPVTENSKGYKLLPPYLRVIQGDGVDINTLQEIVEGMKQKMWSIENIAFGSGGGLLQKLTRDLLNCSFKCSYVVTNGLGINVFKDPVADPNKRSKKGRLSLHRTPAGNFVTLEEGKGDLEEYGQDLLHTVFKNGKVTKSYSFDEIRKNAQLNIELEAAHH
PROTOCOL DETAILS: NAMPT biochemical inhibition assay (NMN quantified by mass spectrometry)
MEASUREMENT SETUP: NAMPT biochemical inhibition; read-out: Biochem IC50
With a cut-off of 2 nM, any IC50 strictly below it is called label 1; any IC50 meeting it or above is called label 0.

STRUCTURE STRING: COc1ncc(S(=O)(=O)c2ccc(NC(=O)NCc3cccnc3)cc2)c(OC)n1
DISCRETE LABEL: label 0
--
STRUCTURE STRING: O=C(NCc1cccnc1)Nc1ccc(S(=O)(=O)c2cncc3ccccc23)cc1
DISCRETE LABEL: label 1
--
STRUCTURE STRING: O=C(NCc1cccnc1)Nc1ccc(S(=O)(=O)c2cccc(C(=O)NC3CC3)c2)cc1
DISCRETE LABEL: label 0
--
STRUCTURE STRING: O=C(NCc1ccc2nccn2c1)c1ccc(S(=O)(=O)Nc2cccc(OC(F)(F)F)c2)cc1
DISCRETE LABEL: label 0
--
STRUCTURE STRING: CCNC(=O)c1ccc(S(=O)(=O)c2ccc(NC(=O)NCc3cccnc3)cc2)cc1
DISCRETE LABEL: label 1

These data points were gathered from patent US11279687B2.
